# method-summary: THC pharmacokinetics in wild-type and FABP1-KO mice (LC-MS/MS of brain and plasma)
# experimental-parameters: mouse, plasma, ip, 10 mg/kg, AUC, wild-type mice, THC 10 mg/kg i.p., 0-24 h
AUC values, listed per item
The answer is to be given in ng·h/mL; state only the numeric part.

Some entries whose results are on file:
{"molecule": "CCCCCc1cc(O)c2c(c1)OC(C)(C)[C@@H]1CCC(C)=C[C@@H]21 [THC, ∆^9-tetrahydrocannabinol]", "output-unit": "ng·h/mL", "value": 11500}
{"molecule": "CCCCCc1cc(O)c2c(c1)OC(C)(C)C1CCC(C(=O)O)=CC21 (stereo not drawn)", "output-unit": "ng·h/mL", "value": 506}

Then there is this molecule:
State its AUC: CCCCCc1cc(O)c2c(c1)OC(C)(C)C1CCC(CO)=CC21 (stereo not drawn) [11-OH-THC, 11-hydroxy-Δ^9-tetrahydrocannabinol]
59.4
